Values compiled from patent US20060281771A1.

For each record, write down the corresponding pIC50.
molecular target: isolated kinase domain of the human FLT3 receptor (a.a. 571-993) (Homo sapiens, UniProt P36888); construct: human FLT3 receptor (a.a. 571-993); test: FLT3 fluorescence polarization kinase assay
Sequence (P36888 571-993): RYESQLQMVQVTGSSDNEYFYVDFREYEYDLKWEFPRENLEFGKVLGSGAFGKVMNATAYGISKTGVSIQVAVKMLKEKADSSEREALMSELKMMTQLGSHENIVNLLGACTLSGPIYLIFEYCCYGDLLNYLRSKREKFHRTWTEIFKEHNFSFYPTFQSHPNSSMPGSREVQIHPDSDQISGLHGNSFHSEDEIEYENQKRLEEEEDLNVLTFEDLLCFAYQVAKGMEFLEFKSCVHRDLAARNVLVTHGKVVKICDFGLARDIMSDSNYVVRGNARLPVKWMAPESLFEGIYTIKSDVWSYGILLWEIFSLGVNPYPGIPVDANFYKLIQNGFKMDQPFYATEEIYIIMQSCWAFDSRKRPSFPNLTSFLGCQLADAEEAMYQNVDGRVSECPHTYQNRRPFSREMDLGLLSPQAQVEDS
// pIC50 here means minus log10 of the molar concentration (mol/L)

Request: Output pIC50 of COc1cc2ncnc(N3CCC(C(=O)Nc4ccc(OC(C)C)cc4)CC3)c2cc1OC
Result: 6.73

Request: Output pIC50 of CC(C)c1ccc(NC(=O)OC2CCN(c3ccnc4ccccc34)C2)cc1 (stereo not shown)
Result: 5.98

Request: Output pIC50 of COc1cc2ncnc(N3CCCC(COC(=O)Nc4ccc(C(C)C)cc4)C3)c2cc1OC (stereo not shown)
Result: 7.96

Request: Output pIC50 of COc1cc2ncnc(N3CCC(OC(=O)Nc4ccc(OC5CCC5)nc4)C3)c2cc1OC (stereo not shown)
Result: 7.46

###

tested on: MV4-11 cells; experiment: Inhibition of MV4-11 cell proliferation (CellTiterGlo, 72 h); assay type: cell-based; settings: Homo sapiens; 72 h growth inhibition
MEASUREMENT_LABEL: IC50 (nM)
The reply should be a number in nM, with the unit left off.

Request: Output IC50 of COc1cc2ncnc(N3CCC(OC(=O)Nc4ccc(OC5CCC5)nc4)C3)c2cc1OC (stereo not drawn)
Result: 64

Request: Output IC50 of COc1ccc2ncnc(N3CCC(NC(=O)Nc4ccc(C(C)C)cc4)CC3)c2c1
Result: 16

Request: Output IC50 of COc1cc2ncnc(N3CCC(N(C)C(=O)Nc4ccc(C(C)C)cc4)C3)c2cc1OC (stereo not drawn)
Result: 1380

Request: Output IC50 of COc1cc2ncnc(N3CCC(CC(=O)Nc4ccc(C(C)C)cc4)C3)c2cc1OC (stereo not drawn)
Result: 8

Request: Output IC50 of COc1cc2ncnc(N3CCC(OC(=O)Nc4ccc(C(C)C)cc4)CC3)c2cc1OC
Result: 181

Request: Output IC50 of COc1cc2ncnc(N3CCC(NC(=O)Nc4ccc(C(C)C)cc4)C3)c2cc1OC (stereo not drawn)
Result: 909

###

biological target: isolated kinase domain of the human FLT3 receptor (a.a. 571-993) (Homo sapiens, UniProt P36888); construct: human FLT3 receptor (a.a. 571-993); test: FLT3 fluorescence polarization kinase assay
Please note: IC50 exactly at 0.3 µM is 0.0. Only values below 0.3 µM get 1.0.

Request: hey, is IC50 for CCN(CC)CC#Cc1ccc2ncnc(N3CCC(OC(=O)Nc4ccc(C(C)C)cc4)C3)c2c1 (stereo not shown) lower than 0.3 µM or not?
Result: 1.0

Request: hey, is IC50 for COc1cc2ncnc(N3CCC(N(C)C(=O)Nc4ccc(C(C)C)cc4)C3)c2cc1OC (stereo not shown) lower than 0.3 µM or not?
Result: 1.0

Request: hey, is IC50 for CC(C)Oc1ccc(NC(=O)NC2CCN(c3ccnc4ccccc34)C2)cc1 (stereo not shown) lower than 0.3 µM or not?
Result: 0.0

Request: hey, is IC50 for COc1cc2ncnc(N3CCC(NC(=O)Cc4ccc(C(C)C)cc4)C3)c2cc1OC (stereo not shown) lower than 0.3 µM or not?
Result: 0.0

Request: hey, is IC50 for COc1cc2ncnc(N3CCC(OC(=O)Nc4ccc(OC5CCC5)nc4)CC3)c2cc1OC lower than 0.3 µM or not?
Result: 1.0

Request: hey, is IC50 for COc1cc2ncnc(N3CC(CNC(=O)Nc4ccc(OC(C)C)cc4)C3)c2cc1OC lower than 0.3 µM or not?
Result: 0.0

Request: hey, is IC50 for COc1cc2ncnc(N3CCCC3COC(=O)Nc3ccc(C(C)C)cc3)c2cc1OC (stereo not shown) lower than 0.3 µM or not?
Result: 1.0

Request: hey, is IC50 for COc1cc2ncnc(N3CCC(CC(=O)Nc4ccc(C(C)C)cc4)CC3)c2cc1OC lower than 0.3 µM or not?
Result: 1.0

Request: hey, is IC50 for COc1cc2ncnc(N3CCC(NC(=O)Cc4ccc(C(C)C)cc4)CC3)c2cc1OC lower than 0.3 µM or not?
Result: 1.0

Request: hey, is IC50 for COc1cc2ncnc(N3CCC(OC(=O)Nc4ccc(OC(C)C)cc4)C3)c2cc1OC (stereo not shown) lower than 0.3 µM or not?
Result: 1.0

Request: hey, is IC50 for CC(C)c1ccc(NC(=O)OC2CCN(c3ncnc4ccc(I)cc34)C2)cc1 (stereo not shown) lower than 0.3 µM or not?
Result: 1.0

Request: hey, is IC50 for COc1cc2ncc(C#N)c(N3CCC(NC(=O)Nc4ccc(C(C)C)cc4)C3)c2cc1OC (stereo not shown) lower than 0.3 µM or not?
Result: 0.0

Request: hey, is IC50 for CC(C)c1ccc(NC(=O)OC2CCN(c3ccnc4ccccc34)CC2)cc1 lower than 0.3 µM or not?
Result: 1.0

Request: hey, is IC50 for CC(C)c1ccc(NC(=O)OC2CCN(c3ncnc4ccccc34)C2)cc1 (stereo not shown) lower than 0.3 µM or not?
Result: 1.0

Request: hey, is IC50 for COc1cc2ncnc(N3CCCC(OC(=O)Nc4ccc(C(C)C)cc4)C3)c2cc1OC (stereo not shown) lower than 0.3 µM or not?
Result: 0.0

Request: hey, is IC50 for COc1cc2ncnc(N3CCCC(NC(=O)Nc4ccc(C(C)C)cc4)C3)c2cc1OC (stereo not shown) lower than 0.3 µM or not?
Result: 0.0

Request: hey, is IC50 for COc1cc2ncnc(N3CCC(C(=O)Nc4cccc(OC(C)C)c4)CC3)c2cc1OC lower than 0.3 µM or not?
Result: 0.0

Request: hey, is IC50 for COc1cc2ncnc(N3CCC(NC(=O)Nc4ccc(OC(C)C)cc4)C3)c2cc1OC (stereo not shown) lower than 0.3 µM or not?
Result: 1.0

Request: hey, is IC50 for CC(C)c1ccc(NC(=O)OC2CCN(c3ncnc4ccc(C#CCO)cc34)C2)cc1 (stereo not shown) lower than 0.3 µM or not?
Result: 1.0

###

target: isolated kinase domain of the human FLT3 receptor (a.a. 571-993) (Homo sapiens, UniProt P36888); construct: human FLT3 receptor (a.a. 571-993); assay: FLT3 fluorescence polarization kinase assay
For each record, write down the corresponding pIC50.
// pIC50 here means minus log10 of the molar concentration (mol/L)

Request: Output pIC50 of COc1cc2ncnc(N3CCC(OC(=O)Nc4ccc(C(C)C)cc4)C3)c2cc1OC (centres unmarked)
Result: 8.15

Request: Output pIC50 of COc1cc2ncnc(N3CCC(N(C)C(=O)Nc4ccc(OC(C)C)cc4)C3)c2cc1OC (centres unmarked)
Result: 5.77

Request: Output pIC50 of CC(C)c1ccc(NC(=O)NC2CCN(c3ncnc4ccccc34)C2)cc1 (centres unmarked)
Result: 7.35

Request: Output pIC50 of COc1cc2ncc(C#N)c(N3CCC(OC(=O)Nc4ccc(OC(C)C)cc4)C3)c2cc1OC (centres unmarked)
Result: 6.06

Request: Output pIC50 of COc1cc2ncc(C#N)c(N3CCC(NC(=O)Nc4ccc(OC(C)C)cc4)C3)c2cc1OC (centres unmarked)
Result: 6.27

Request: Output pIC50 of CC(C)c1ccc(NC(=O)NC2CCN(c3ccnc4ccccc34)C2)cc1 (centres unmarked)
Result: 6.34

Request: Output pIC50 of COc1cc2ncnc(N3CCC(OC(=O)Nc4ccc(C(C)C)cc4)CC3)c2cc1OC
Result: 8.22

###

test system: MV4-11 cells; experiment: Inhibition of MV4-11 cell proliferation (CellTiterGlo, 72 h); type: cell-based; settings: Homo sapiens; 72 h growth inhibition
For each record, write down the corresponding IC50.
The reply should be a number in µM, with the unit left off.

Request: Output IC50 of CC(C)c1ccc(NC(=O)NC2CCN(c3ncnc4cc(OCCN5CCCC5=O)ccc34)C2)cc1 (centres unmarked)
Result: 0.021

Request: Output IC50 of CC(C)c1ccc(NC(=O)NC2CCN(c3ccnc4ccccc34)C2)cc1 (centres unmarked)
Result: 5.3

Request: Output IC50 of CC(C)c1ccc(NC(=O)OC2CCN(c3ccnc4ccccc34)C2)cc1 (centres unmarked)
Result: 6.4

Request: Output IC50 of CC(C)c1ccc(NC(=O)OC2CCN(c3ncnc4ccc(C#CCO)cc34)C2)cc1 (centres unmarked)
Result: 0.136

Request: Output IC50 of COc1cc2ncnc(N3CCC(NC(=O)Nc4ccc(N5CCOCC5)cc4)CC3)c2cc1OC
Result: 0.41

Request: Output IC50 of COc1cc2ncnc(N3CCC(NC(=O)Nc4ccc(N(C)C)cc4)C3)c2cc1OC (centres unmarked)
Result: 0.83

Request: Output IC50 of COc1cc2ncnc(N3CCC(NC(=O)Nc4ccc(N5CCCCC5)cc4)C3)c2cc1OC (centres unmarked)
Result: 3.9
